readout.type: pIC50
Scale: pIC50 equals -log10([C]), with [C] in mol/L.

Entry c1cc(-c2nccc3c(N4C[C@@H]5C[C@H]4CO5)cc(N4CCOCC4)nc23)[nH]n1 , full-length human ATR protein (Homo sapiens (Human)) data, pIC50 value: 6.07
